Tested on: A549 NSCLC
experimental-protocol: NCI tumour cell line growth inhibition, 48 h; in the data active means GI50 below about 0.43 µM; inactive means the rest
Tick one outcome: active, inactive

Here are 5 compounds together with their reported answers.
• O=C1CCc2c(sc3[nH]c(=S)n(-c4cc(C(F)(F)F)cc(C(F)(F)F)c4)c(=O)c23)C1 = inactive
• C=C1C(=O)O[C@H]2[C@H]1CC/C(COC(=O)CCCCCC(=O)OC/C1=C/CC[C@@]3(C)O[C@H]3[C@H]3OC(=O)C(=C)[C@@H]3CC1)=C\CC[C@@]1(C)O[C@@H]21 = inactive
• COc1ccc2c(c1)nc(NNC(=O)c1cnccn1)c1cccn12 = active
• OCCCCC#Cc1ccccc1C#Cc1ccc(O)cc1 = inactive
• COc1ccc2c(c1)/C(=C\c1ccncc1)C(=O)N2 = inactive

--- query ---
Inquiry: Dear all, I need the recorded test outcome for C=C(C)[C@@H]1CCC=C2CC[C@]3(C)[C@H](CC[C@@H]4[C@@]5(C)CCCNC(C)(C)[C@@H]5CC[C@]43C)[C@H]21 , thank you.
Reply text: inactive

* * *

Test system: EKVX NSCLC
experimental-protocol: NCI tumour cell line growth inhibition, 48 h; in the data active means GI50 below about 0.43 µM; inactive means the rest
Respond with a class label; see Y (active), N (inactive)

- Cc1ccc(/C=C(\C#N)c2cc3ccccc3n2C)cc1: N
- O=C1CCc2c(sc3[nH]c(=S)n(-c4cc(C(F)(F)F)cc(C(F)(F)F)c4)c(=O)c23)C1: Y
- C/C(=C\c1ccn(-c2ccccc2N)n1)[C@@H]1C[C@@H]2O[C@]2(C)CCC[C@H](C)[C@H](O)[C@@H](C)C(=O)C(C)(C)[C@@H](O)CC(=O)O1: N
- COC(=O)c1c2c(c(C)[n+]([O-])c1C)C(=O)C=C(NCc1ccccc1)C2=O: N
- CNC(=O)NCC1OC(n2cnc3c(NC(=O)Nc4ccccc4)ncnc32)C(O[Si](C)(C)C(C)(C)C)C1O[Si](C)(C)C(C)(C)C (centres undefined): N

Inquiry: Just curious, what result did CN(C)C(=O)Nc1nc2cc(Cl)c(Cl)cc2[nH]1 get here?
Reply text: N

Inquiry: For CCC1(O)CC(OC2CC(N(C)C)C(OC3CC(O)C(OC4OC(C)C(=O)C=C4N)C(C)O3)C(C)O2)c2c(cc3c(c2O)C(=O)c2c(O)cccc2C3=O)C1C(=O)OC (centres undefined) , which call appears in the assay record?
Reply text: Y

Inquiry: Would you mind telling me which call this test gave O=[N+]([O-])c1cc[n+]([O-])c2ccccc12 ?
Reply text: N

Inquiry: Look up the recorded call for CN(C)c1ccc(Nc2c3ccccc3nc3ccccc23)cc1 in this test.
Reply text: N

* * *

For each of the compounds below, state its TGI.
Test system: OVCAR-3 ovarian
experimental-protocol: NCI tumour cell line growth inhibition, 48 h

• Cc1cc2[nH]c3c(C#N)c(-c4ccccc4)c(N=Nc4ccc(F)cc4)c(=O)n3c2cc1C = 39.8 µM
• CN1C(=O)c2ccc3ccccc3c2C1=O = > 100 µM
• O=C(/C(=C(/O)c1ccccc1)c1nc2ccccc2sc1=O)c1ccccc1 = 36.3 µM

# batch size: 4; output TGI per entry
1. N#C/C(=C/C=C/c1ccco1)C(N)=O
2. O=C(O)CCC(=O)OCN1C(=O)C2C3C=CC(C2C1=O)C1C2C(=O)N(COC(=O)CCC(=O)O)C(=O)C2C31 (stereo not given)
3. C=CC(=O)N1CCC(c2ccc(C(N)=O)c(-c3ccc(Oc4ccccc4)cc3)n2)CC1
4. COc1ccccc1/C=C1\COc2ccc(-c3ccccc3)cc2C1=O

Reply text:
["> 10 µM", "> 100 µM", "> 100 µM", "5.48 µM"]

Source of measurements: PubChem BioAssay (NCI)
